- ASSAY_SUMMARY: inhibition of 3D7 malaria parasite growth – strain 3D7 (AID 2306);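 note: 0% = DMSO wells and 100% = chloroquine plus artemisinin control wells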
- CONDITION_PARAMETERS: P. falciparum 3D7 erythrocytic growth, LDH absorbance, 72 h; at 2 µM; stronger effect = higher value

{"COMPOUND": "O=C(NC1CCCCC1)N(Cc1cccc(-c2ccc(CNCCc3ccccc3)cc2)c1)C1CCN(Cc2ccccc2)CC1", "growth inhibition / %": 93}
{"COMPOUND": "CC(C)(C)OC(=O)N[C@@H](CS(=O)(=O)CCN=C(N)COCc1ccccc1)C(=O)OC(C)(C)C", "growth inhibition / %": 88}
{"COMPOUND": "Cc1ccc(S(=O)(=O)Nc2ccc(Nc3nccc(Nc4cccc5[nH]ncc45)n3)cc2)cc1", "growth inhibition / %": 90}
{"COMPOUND": "C[C@H](NC(=O)c1c(CN2CCC(NC(=O)CC(C)(C)C)CC2)c(-c2cccs2)nc2ccccc12)C1CCCCC1", "growth inhibition / %": 91}
{"COMPOUND": "CC(C)CNC(=O)c1ccc(-c2cccc(CN3CCC(N4CCCC4)CC3)c2)nc1", "growth inhibition / %": 81}
{"COMPOUND": "CC(C)(CNCCOc1ccc(Cl)cc1)c1nc(-c2ccc(Cl)c(O)c2)c(-c2ccnc(N)n2)[nH]1", "growth inhibition / %": 97}
{"COMPOUND": "Cc1cccc2[nH]c(-c3cccc(-c4cccc(NC(=O)c5ccc(C(N)=O)cc5)c4)c3)nc12", "growth inhibition / %": 101}
{"COMPOUND": "CN(Cc1cnc2nc(N)nc(N)c2n1)c1ccc(C(=O)NC(CCC(=O)O)C(=O)O)cc1 (stereo not drawn)", "growth inhibition / %": 91}

====

- STUDY_SYSTEM: L-lactate dehydrogenase (Plasmodium falciparum (isolate CDC / Honduras))
- ASSAY_SUMMARY: PfLDH activity inhibition – cell lysate, 3D7 strain, counter-screen for P. falciparum growth inhibition project (AID 2304);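 note: 0% = vehicle and 100% = reference inhibitor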
- CONDITION_PARAMETERS: P. falciparum 3D7 crude extract, LDH APAD/NBT absorbance; at 2 µM; stronger effect = higher value

{"COMPOUND": "O=C(NCCCCN1CCC(c2ccc3c(c2OCCCO)CCCC3)CC1)c1ccc(-c2ccc(C(F)(F)F)cc2)c(CO)c1", "inhibition (%)": 4}
{"COMPOUND": "Cc1nn(-c2ccccc2)c2c1C(c1ccc(C(C)C)cc1)N1C(=N2)N(Cc2ccccc2)c2ccccc21 (centres undefined)", "inhibition (%)": -7}
{"COMPOUND": "Cc1cc(OCCCN2CCC(NC(=O)c3ccc(Br)cc3)C2)c2ccccc2n1 (centres undefined)", "inhibition (%)": -3}
{"COMPOUND": "CCN(CC)CCNc1cc(C)nc(/N=C(\\N)Nc2ccc(Cl)cc2)n1", "inhibition (%)": 3}
{"COMPOUND": "CN(C)Cc1c(O)ccc2oc(Cc3ccccc3)cc12", "inhibition (%)": 0}
{"COMPOUND": "O=C(Nc1ccc(-c2ccc(-c3nc4ccc(C(F)(F)F)cc4[nH]3)s2)cc1)c1ccoc1", "inhibition (%)": 3}
{"COMPOUND": "Cc1cc(OCCCN2CCC(NS(=O)(=O)c3ccc(C(F)(F)F)cc3)CC2)c2ccccc2n1", "inhibition (%)": 1}
{"COMPOUND": "CCc1ccc(Cc2cnc3nc(N)nc(N)c3c2C)cc1", "inhibition (%)": 0}
{"COMPOUND": "CCc1c(C(=O)NC2CCC(N3CCC(c4ccccc4C)CC3)CC2)[nH]c2ccc(Br)cc12 (centres undefined)", "inhibition (%)": -5}

Source: PubChem BioAssay
